All figures here come from PubChem BioAssay (Tox21).

experiment: qHTS assay for identifying genotoxic compounds that show differential cytotoxicity against isogenic chicken DT40 cell lines with known DNA damage response pathways - Rad54/Ku70 mutant cell line (AID 743015); conditions: DT40 Rad54/Ku70 mutant viability, CellTiter-Glo, 40 h; series mostly up to 66.8 µM; also: nearly all actives have a fitted effect of over 60% in size
Results filed as inconclusive are left out. The source made the active and inactive calls. Calls follow the shape of the dose curve; as a rule, active = well fitted cell-killing curve with a large enough effect in the repeat runs; inconclusive = weak or mixed curves; inactive = no such curve, though single readings can be large or run the other way.
Valid outcomes are listed here; reply with one: true = active, false = inactive

O=P(Cl)(Cl)Cl    false
Cc1cc(C2CC2)nc(Nc2ccccc2)n1    true
CC(C)=CCN1CC[C@@]2(C)c3cc(O)ccc3C[C@@H]1[C@@H]2C    true
CNC(=O)CSP(=O)(OC)OC    false
COC(=O)/C=C(\C)OP(=O)(OC)OC    false
COc1c2c(cc3c1OCO3)CCN(C)C2    false

Hi team, can someone confirm the assay call for CCCCn1cc[n+](C)c1 (tested in a mixture with another compound) ?
false

Assay result, entry CCCC[N+]1(C)CCCC1 (tested in a mixture with another compound) — outcome?
false

In this assay, the call recorded for CCCCC(CC)COC(=O)c1ccccc1C(=O)OCC(CC)CCCC (stereo unspecified) was what?
false

###

assay: qHTS assay to identify small molecule agonists of the vitamin D receptor (VDR) signaling pathway - cell viability counter screen (AID 743224); conditions: VDR-bla HEK293T viability, CellTiter-Glo luminescence, 16 h; series mostly up to 62.6 µM; also: nearly all actives have a fitted effect of over 50% in size
Records with an inconclusive call do not appear. Calls of active or inactive are those of the source. Calls follow the shape of the dose curve; as a rule, active = well fitted cell-killing curve with a large enough effect in the repeat runs; inconclusive = weak or mixed curves, or effect the other way; inactive = no such curve, though single readings can be large or run the other way.
A correct response names exactly one class from 1 = active, 0 = inactive

Reference set (4 entries):
CCOC(=O)CCN(SN(C)C(=O)Oc1cccc2c1OC(C)(C)C2)C(C)C    0
COC(=O)c1ccccc1S(=O)(=O)NC(=O)Nc1nc(C)nc(OC)n1    0
Nc1cc(Cl)ccc1Cl    0
O=c1c2ccccc2c(=O)c2c1cc(Cl)c1[nH]c3c([nH]c12)c(Cl)cc1c(=O)c2ccccc2c(=O)c13    0

Hey, what did the test say about `Cc1ccc([N+](=O)[O-])[c]2c1[O][Hg]2` ?
1

Status in this test for `CCC[CH2][Sn]([CH2]CCC)([CH2]CCC)[CH2]CCC` ?
1

Kindly provide the recorded test outcome for the following compound: `Cc1ccc2cc3c(ccc4ccccc43)c3c2c1CC3`
0

For `COc1cnc(OC)n2nc(NS(=O)(=O)c3c(OCC(F)F)cccc3C(F)(F)F)nc12` , what call appears in the results of this test?
0

GET /call?item= `O=[N+]([O-])C(Br)Br` returns the recorded outcome of this test.
0

Just curious, what result did `O.O.O.O=C([O-])[C@H]([O-])[C@@H]([O-])C(=O)[O-].O=C([O-])[C@H]([O-])[C@@H]([O-])C(=O)[O-].[K+].[K+].[Sb+3].[Sb+3]` get here?
0

###

assay: qHTS assay to identify small molecule agonists of the TGF-beta/Smad signaling pathway - cell viability counter screen (AID 1346829); settings: SBE-bla HEK293T viability, CellTiter-Glo luminescence, 5 h; series mostly up to 76.8 µM; also: nearly all actives have a fitted effect of over 45% in size
Records with an inconclusive call do not appear. Active and inactive are the calls of the source. Calls come from the whole dose curve; as a rule, active = well fitted cell-killing curve with a large enough effect in the repeat runs; inconclusive = weak or mixed curves, or effect the other way; inactive = flat fitted curve, though single readings scatter.
Returns: one label drawn from active, inactive

These solved cases illustrate the format of a correct answer.
S=C=Nc1ccccc1    inactive
CCOP(=O)(OCC)Oc1nc(Cl)c(Cl)cc1Cl    inactive
NC1CCC(CC2CCC(N)CC2)CC1 (stereo unspecified)    inactive
O=[N+]([O-])c1cc(C(F)(F)F)c(Cl)c([N+](=O)[O-])c1Nc1ncc(C(F)(F)F)cc1Cl    active
O=Cc1ccccc1    inactive

Note: attention shifts to another entry.
Per the records of this test, what outcome belongs to `CCCCCON=O` ?
inactive
